- method_notes: Mouse liver microsomal intrinsic clearance
- Type: in vitro ADME
value_kind: CLint (mouse) (mL·min/g)
Kindly answer with a numeric value in mL·min/g, unit omitted.

- molecule: "CC(C)CC(=O)c1sc(Nc2ccc(F)c(F)c2)nc1N"
  unit_name: "mL·min/g"
  observed_value: 5.9

Any idea what its CLint (mouse) is? The molecule is `CC(C)OCC(=O)c1sc(Nc2ccc(F)c(F)c2)nc1N`
9.3

And for `Nc1nc(NC2CCCCC2)sc1C(=O)c1cc(F)cc(F)c1` ?
3.6

And for `Nc1nc(NC2CCCCC2)sc1C(=O)c1ccccc1F` ?
9.7

And for CC(OCC(=O)c1sc(Nc2ccc(F)c(F)c2)nc1N)C(F)(F)F (stereo not shown) ?
7.4

And for `Nc1nc(NC2CCCCC2)sc1C(=O)C1CCC1` ?
21

And for CC(OCC(=O)c1sc(Nc2ccn(C)n2)nc1N)C(F)(F)F (stereo not shown) ?
10.8

And for `Nc1nc(Nc2ccc(F)c(F)c2)sc1C(=O)CCN1CCOCC1` ?
1.2

And for `CC(C)(O)CC(=O)c1sc(Nc2ccc(F)c(F)c2)nc1N` ?
2.2

And for `CC(C)C(=O)c1sc(NC2CCCCC2)nc1N` ?
0.5
